Entries and their %Inh
Test system: NEK3
Conditions: concentration: 1 μM, replicates: in singlicate; n = 1;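 also: KINOMEscan kinase panel screen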
endpoint_name: %Inh (%)

{"compound": "COC(=O)c1cccc(NC(=O)NC2CCN(c3ccnc(Nc4ccc(OC)cc4)n3)C2)c1 (stereo not drawn)", "endpoint_name": "%Inh", "endpoint_value": 14}
{"compound": "CC(=O)c1c(C)c2cnc(Nc3ccc(N4CCNCC4)cn3)nc2n(C2CCCC2)c1=O", "endpoint_name": "%Inh", "endpoint_value": 36}
{"compound": "O=C1NC(=O)C(c2ccc(Cl)cc2)=C1Nc1ccc(O)cc1", "endpoint_name": "%Inh", "endpoint_value": 0}
{"compound": "CNCc1ccc2nc(NC(=O)c3ccc(C(C)(C)C)cc3)cn2c1", "endpoint_name": "%Inh", "endpoint_value": 18}
{"compound": "O=c1cc(N2CCOCC2)nc2n(Cc3cccc(Cl)c3Cl)c3ccccc3n12", "endpoint_name": "%Inh", "endpoint_value": 3}
{"compound": "CCn1c(-c2ccccc2)nc2cnccc21", "endpoint_name": "%Inh", "endpoint_value": 9}
{"compound": "CNc1nc(-c2ccc3c(N)n[nH]c3c2)cc(N2C[C@@H](C(=O)NC3CCCCC3)OC[C@H]2C)n1", "endpoint_name": "%Inh", "endpoint_value": 11}
{"compound": "CN1c2ccc(-c3ccc(C(N)=O)cc3)cc2-c2[nH]ncc2S1(=O)=O", "endpoint_name": "%Inh", "endpoint_value": 35}
{"compound": "O=C(Nc1n[nH]c2nc(-c3cccs3)c(Br)cc12)C1CC1", "endpoint_name": "%Inh", "endpoint_value": 0}

---

Entries and their %Inh
Tested on: NDR1
Construct: gene STK38
Conditions: concentration: 1 μM, replicates: in singlicate; n = 1

{"compound": "COc1ccc(Nc2nccc(N3CCC(NC(=O)C(C)c4ccc(Cl)cc4)CC3)n2)cc1 (centres unmarked)", "%Inh": "39%"}
{"compound": "Nc1cccc(-c2ccc3c(N)n[nH]c3c2)n1", "%Inh": "23%"}
{"compound": "O=c1cc(N2CCOCC2)nc2n(Cc3ccccc3F)ccn12", "%Inh": "34%"}
{"compound": "COc1ccc(Nc2nccc(N3CCC(NC(=O)C(C)c4ccc(Cl)cc4)C3)n2)cc1 (centres unmarked)", "%Inh": "0%"}
{"compound": "Nc1ncnc2occ(-c3ccc4c(c3)CCN4C(=O)Cc3cc(F)ccc3F)c12", "%Inh": "11%"}

---

Entries and their %Inh
Test system: CSNK1A1L
Settings: concentration: 1 μM, replicates: in singlicate; n = 1

{"molecule": "Cc1cccc2c(-c3ccncn3)c(-c3ccc(F)cc3)nn12", "study_target": "CSNK1A1L", "%Inh, %": 0}
{"molecule": "Cc1ccccc1Cn1ccn2c(=O)cc(N3CCOCC3)nc12", "study_target": "CSNK1A1L", "%Inh, %": 0}
{"molecule": "CNc1nc(-c2ccc3c(N)n[nH]c3c2)cc(N2C[C@@H](C(=O)Nc3ccccc3)CC[C@H]2C)n1", "study_target": "CSNK1A1L", "%Inh, %": 6}
{"molecule": "Nc1nccc(-c2c(-c3ccc(F)cc3)ncn2C2CCN(Cc3ccccc3)CC2)n1", "study_target": "CSNK1A1L", "%Inh, %": 49}
{"molecule": "O=C(Nc1n[nH]c2nc(-c3cccs3)c(Br)cc12)C1CCCC1", "study_target": "CSNK1A1L", "%Inh, %": 13}
{"molecule": "CC(=O)c1c(C)c2cnc(Nc3ccc(N4CCNCC4)cn3)nc2n(C2CCCC2)c1=O", "study_target": "CSNK1A1L", "%Inh, %": 0}
{"molecule": "COc1ccc(Nc2nccc(-c3ccc(NC(=O)c4cc5cc(F)ccc5[nH]4)cc3)n2)cc1", "study_target": "CSNK1A1L", "%Inh, %": 0}
{"molecule": "c1ccc(-c2ccnc3[nH]ccc23)cc1", "study_target": "CSNK1A1L", "%Inh, %": 20}
{"molecule": "O=C1NC(=O)C(c2ccc(Cl)cc2)=C1Nc1cccc(Cl)c1", "study_target": "CSNK1A1L", "%Inh, %": 16}
